Molecular target: soluble guanylate cyclase (sGC) (Bos taurus)
Construct: The sGC which was employed had been isolated from bovine lung; from tissue; host or cells: bovine lung
Test: Activation of the soluble guanylate cyclase (cGMP enzyme immunoassay)
Format: biochemical, bovine
Conditions: concentration c 50 μM; n-fold stimulation of basal enzyme activity
Everything with n-fold stimulation lower than 9 is Not fulfilled; everything else, including exactly 9, is Fulfilled.

# INPUT_SMILES, CLASS_NAME
data = [
    ("Cc1ccc(NS(=O)(=O)c2ccc(Cl)cc2)c(C(=O)Nc2ccc(S(=O)(=O)N3CCSCC3)cc2)c1", "Fulfilled"),
    ("CCS(=O)(=O)Nc1ccc(Cl)cc1C(=O)Nc1ccc(S(=O)(=O)N2CCOCC2)cc1", "Not fulfilled"),
    ("COc1cc(NS(=O)(=O)c2ccc(Cl)cc2)c(C(=O)Nc2ccc(S(=O)(=O)N3C[C@@H](C)O[C@@H](C)C3)cc2)cc1OC", "Fulfilled"),
    ("O=C(Nc1ccc(S(=O)(=O)N2CCOCC2)cc1)c1cc(Cl)ccc1NS(=O)(=O)c1cc(C(F)(F)F)cc(C(F)(F)F)c1", "Fulfilled"),
]

[ask] Reported n-fold stimulation reaches at least 9 for `O=C(Nc1ccc(S(=O)(=O)N2CCOCC2)cc1)c1cc(Cl)ccc1NS(=O)(=O)CC(F)(F)F` ?
[reply] Not fulfilled

[ask] Reported n-fold stimulation reaches at least 9 for `O=C(Nc1ccc(S(=O)(=O)N2CCN(CCO)CC2)cc1)c1cc(Cl)ccc1NS(=O)(=O)c1ccc(Cl)cc1` ?
[reply] Fulfilled

[ask] Reported n-fold stimulation reaches at least 9 for `O=C(Nc1ccc(S(=O)(=O)N2CCOCC2)cc1)c1cc(Cl)ccc1NS(=O)(=O)c1cccnc1` ?
[reply] Fulfilled

[ask] Reported n-fold stimulation reaches at least 9 for `O=C(Nc1ccc(S(=O)(=O)N2CCOCC2)cc1)c1sccc1NS(=O)(=O)c1ccc(Cl)cc1` ?
[reply] Fulfilled

[ask] Reported n-fold stimulation reaches at least 9 for `COc1cc(NS(=O)(=O)c2ccc(Cl)cc2)c(C(=O)Nc2ccc(S(=O)(=O)N3CCSCC3)cc2)cc1OC` ?
[reply] Fulfilled

====

// reported n-fold stimulation per item
Molecular target: soluble guanylate cyclase (sGC) (Bos taurus, UniProt P16068)
Construct: The sGC which was employed had been isolated from bovine lung; from tissue; host or cells: bovine lung
Sequence (P16068 1-619): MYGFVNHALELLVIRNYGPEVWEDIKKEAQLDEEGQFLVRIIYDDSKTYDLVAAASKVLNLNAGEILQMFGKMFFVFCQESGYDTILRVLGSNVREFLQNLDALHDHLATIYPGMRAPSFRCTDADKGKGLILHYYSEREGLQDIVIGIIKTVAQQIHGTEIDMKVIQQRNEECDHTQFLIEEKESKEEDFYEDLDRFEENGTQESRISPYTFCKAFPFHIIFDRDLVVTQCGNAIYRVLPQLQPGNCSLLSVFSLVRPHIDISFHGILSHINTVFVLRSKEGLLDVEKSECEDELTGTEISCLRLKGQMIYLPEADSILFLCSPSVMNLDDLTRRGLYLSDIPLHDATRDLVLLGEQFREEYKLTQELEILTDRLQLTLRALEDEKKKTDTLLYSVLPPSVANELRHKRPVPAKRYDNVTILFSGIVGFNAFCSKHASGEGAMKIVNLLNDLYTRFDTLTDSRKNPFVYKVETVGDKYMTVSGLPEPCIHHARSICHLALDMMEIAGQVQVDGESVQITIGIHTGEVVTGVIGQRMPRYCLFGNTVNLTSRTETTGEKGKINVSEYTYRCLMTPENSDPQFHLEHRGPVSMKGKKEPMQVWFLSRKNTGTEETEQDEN
Sequence (P19687 1-691 partner): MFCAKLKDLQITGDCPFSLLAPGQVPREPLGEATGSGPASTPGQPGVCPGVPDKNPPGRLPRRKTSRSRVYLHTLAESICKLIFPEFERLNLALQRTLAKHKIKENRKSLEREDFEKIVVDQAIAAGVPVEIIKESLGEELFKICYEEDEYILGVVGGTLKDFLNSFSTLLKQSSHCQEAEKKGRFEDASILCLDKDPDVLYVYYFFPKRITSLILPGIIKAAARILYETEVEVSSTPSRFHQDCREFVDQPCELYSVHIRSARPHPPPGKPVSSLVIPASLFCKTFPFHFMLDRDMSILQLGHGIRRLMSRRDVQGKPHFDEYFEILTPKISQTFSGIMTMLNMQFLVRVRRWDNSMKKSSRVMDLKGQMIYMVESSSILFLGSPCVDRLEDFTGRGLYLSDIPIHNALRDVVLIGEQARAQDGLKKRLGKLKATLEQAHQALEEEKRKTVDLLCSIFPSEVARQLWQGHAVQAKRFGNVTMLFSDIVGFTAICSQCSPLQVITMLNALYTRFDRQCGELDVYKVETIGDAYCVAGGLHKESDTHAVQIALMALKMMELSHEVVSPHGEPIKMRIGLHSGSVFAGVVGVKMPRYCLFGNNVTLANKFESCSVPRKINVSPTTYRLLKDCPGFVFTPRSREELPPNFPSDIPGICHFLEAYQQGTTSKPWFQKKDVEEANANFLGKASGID
Test: Activation of the soluble guanylate cyclase (cGMP enzyme immunoassay)
Assay type: biochemical, bovine
Settings: concentration c 50 μM; n-fold stimulation of basal enzyme activity
Please state the value as a number alone, without comment.

# COMPOUND, n-fold stimulation
records = [
    ("O=C(Nc1ccc(S(=O)(=O)N2CCC3(CC2)OCCO3)cc1)c1cc(Cl)ccc1NS(=O)(=O)c1ccc(Cl)cc1 [Example 68]", 12.1),
    ("CN1CCN(S(=O)(=O)c2ccc(NC(=O)c3cc(Cl)ccc3NS(=O)(=O)c3ccc(Cl)cc3)cc2)CC1 [Example 64]", 23.9),
    ("COc1cc(NS(=O)(=O)c2ccc(Cl)cc2)c(C(=O)Nc2ccc(S(=O)(=O)N3CCS(=O)(=O)CC3)cc2)cc1OC [Example 175]", 21.1),
    ("CC1CN(S(=O)(=O)c2ccc(NC(=O)c3cc(Cl)ccc3NS(=O)(=O)c3ccc(Cl)cc3)cc2)CC(C)O1 (stereo not shown) [Example 65]", 24.6),
    ("C[C@@H]1CN(S(=O)(=O)c2ccc(NC(=O)c3cc(Cl)ccc3NS(=O)(=O)c3ccc(Cl)cc3)cc2)C[C@H](C)O1 [Example 66]", 33),
    ("Cc1nn(C)c(Cl)c1S(=O)(=O)Nc1ccc(Cl)cc1C(=O)Nc1ccc(S(=O)(=O)N2CCSCC2)cc1 [Example 124]", 31.2),
]

--- query ---
[ask] For the compound O=C(Nc1ccc(S(=O)(=O)N2CCOCC2)cc1)c1cc(Cl)ccc1NS(=O)(=O)c1cccc([N+](=O)[O-])c1 [Example 151] , what n-fold stimulation is on record?
[reply] 19.9
